Assay: chemical genetic growth profiling, strain panel (AID 1159580);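 further: tested at 20 µM; growth read once vehicle control cultures reached saturation at 30 °C; 1 = growth at the plate median or of vehicle wells; lower values mean less growth of the strain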
Settings: S. cerevisiae deletion strains, growth OD, locus YOR061W, strain CKA2
Screen size: about 5,500 compounds; about 2,000 (36%) were called active. About 18% were inconclusive and are not listed. No stated cut-off is given here; in the data, active means normalized growth mostly below about 0.91 (no sharp cut-off); inconclusive means no clear call, values can overlap the other calls; inactive means mostly above about 0.92. The list shows a part of the results.
Possible outcomes: active, inactive

INSERT INTO results (molecule, category_label) VALUES
  ('CCN(CCCc1ccccc1)CCCc1ccccc1', 'inactive'),
  ('S=C(NNc1ccccc1)Nc1cc(Cl)ccc1Cl', 'inactive'),
  ('CN(C(=O)CN(CCO)CC(=O)N(C)C(C)(C)Cc1ccccc1)C(C)(C)Cc1ccccc1', 'inactive'),
  ('CC1CC2C3CC(F)C4=CC(=O)C=CC4(C)C3(F)C(O)CC2(C)C1C(=O)COC(=O)C(C)(C)C (stereo unspecified)', 'active'),
  ('O=c1cc(-c2ccccc2)oc2cc(O)cc(O)c12', 'inactive'),
  ('Cc1cc(=O)oc2c(O)c(O)ccc12', 'inactive'),
  ('CN(C)N=Nc1nc[nH]c1C(N)=O', 'inactive'),
  ('COC(=O)CCC(=O)O[C@H]1CCC2(C)C(CCC3C2C(=O)[C@@H](O)C2(C)C3CC3OC4(CCC(C)CO4)[C@@H](C)C32)C1 (stereo partly specified)', 'inactive'),
  ('S=C(Nc1cc(Cl)c(Cl)cc1Cl)Nc1ccccc1Br', 'inactive'),
  ('CC1=C2[C@H]3OC(=O)[C@@H](C)[C@@H]3CC[C@@]2(C)C=CC1=O', 'inactive'),
  ('CN(C)C(=O)Nc1ccc(Cl)c(Cl)c1', 'inactive');

* * *

The reader will find reported normalized growth values listed item by item below.
Experiment: chemical genetic growth profiling, strain panel (AID 1159580);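 further: tested at 20 µM; growth read once vehicle control cultures reached saturation at 30 °C; 1 = growth at the plate median or of vehicle wells; lower values mean less growth of the strain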
Settings: S. cerevisiae deletion strains, growth OD, locus YDR502C, strain sam2, active compounds read low
Among all 5,500 compounds or so, about 2,000 (36%) were called active. Inconclusive results (about 18%) are left out. This is one part of the list.
assay.readout: normalized growth

INSERT INTO results (molecule, reading) VALUES
  ('Cc1nc2sccn2c(=O)c1CCN1CCC(=C(c2ccc(F)cc2)c2ccc(F)cc2)CC1', 0.832),
  ('CSc1ccc2c(c1)N(CCC1CCCCN1C)c1ccccc1S2 (stereo not given)', 0.123),
  ('CC1(C)C(O)CC(O)C2(C)C1CC(O)C1(C)C2CCC2(C)C(c3ccoc3)OC(=O)C3OC321 (stereo not given)', 1.02),
  ('COc1c(Cl)ccc(Cl)c1C(=O)O', 1.01),
  ('O=C(O)c1ccccc1C(=O)Nc1ccc(S(=O)(=O)Nc2nccs2)cc1', 1),
  ('Cc1nc2ccccn2c(=O)c1CCN1CCC(C(=O)c2ccc(F)cc2)CC1', 1.01),
  ('O=C(Nc1ccccc1)c1ccccc1O', 0.939),
  ('O=C(Nc1ccccc1)Nc1ccccc1', 0.977),
  ('C=C1[C@H]2CC[C@@]3(C)[C@H](c4ccoc4)OC(=O)C[C@]13O[C@H]1C[C@H](O)C(C)(C)[C@H](CC(=O)OC)[C@]12C', 1.02),
  ('C=C1C2CC[C@@]3(C)[C@H](c4ccoc4)OC(=O)C[C@]13O[C@H]1CC(O)C(C)(C)C(CC(=O)OC)[C@@]21C (stereo not given in full)', 1);
